test protocol: Pharmacokinetics in adult Sprague-Dawley rats
Format: in vivo
condition info: male, Sprague-Dawley, rat, whole blood; iv 5 mg/kg, average n = 4
quantity: Tmax (min)
Report the value in min with no unit label.

Query: Which Tmax value is on record for O=C(NO)c1ncc(COc2ccc(F)cc2)c(CO)c1O [Compound 2] ?
Reply: 4.8

###

test protocol: Pharmacokinetics in adult Sprague-Dawley rats
Assay type: in vivo
condition info: male, Sprague-Dawley, rat, whole blood; iv 5 mg/kg, average n = 4
quantity: MRT (min)
Report the value in min with no unit label.

Query: Which MRT value is on record for O=C(NO)c1ncc(COc2ccc(F)cc2)c(CO)c1O [Compound 2] ?
Reply: 33
